# Test system: LXRa homodimer (NR concentration 270 nM)
# method notes: PBM binding z-score (relative to random genomic background probes); higher = stronger binding; sequences stand for … in GC…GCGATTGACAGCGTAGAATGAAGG
Returns one of YES or NO; YES when PBM binding z-score is >= -0.05.

biosequence=CCTAGCAGGCCAGGGTCAGTCAAGCATTTCGCTT qualitative_label=NO
biosequence=AATACAGGGTCATCATAGGCCAGAGTACGCACAG qualitative_label=YES
biosequence=GGAACGAGAGCAAAGTTGATAGCATCTGTCGACG qualitative_label=NO
biosequence=CCGAGTAGGTTATGGGGCATTAAGGCAACGGTGA qualitative_label=YES
biosequence=ATCTCTAGGTAAAGATAGTTCAGTAAATGCAAAT qualitative_label=YES
biosequence=CGAACTAGGTCATTGACAGGACAGTCAATAGTAA qualitative_label=YES
biosequence=CAGCCTAGGTCAGGGCCAGTATTGGAGGAACGTT qualitative_label=NO
biosequence=CCGAGTAGGTTATGAGGCATTCAGGCAACGGTGA qualitative_label=NO
biosequence=CCTAGTTGGTCACGAGGTCACACACCGGATATGA qualitative_label=YES
biosequence=AGAATGAGGTTACCAAAGATCAGGGCAACGCTTG qualitative_label=NO
biosequence=TCAATTAGTTGATTAGGGCAACCGAAACAGCGGA qualitative_label=NO
biosequence=TCTAGCAGGCCAGAGGGTTACTCAAGAGGTACGG qualitative_label=NO
biosequence=TCTCGGTGGACACGAAGGTCAGAGCTTTCCAGAG qualitative_label=YES
biosequence=ATTCGGAGGACAAAGGTCAGAGCTACGCCAGTGA qualitative_label=YES
biosequence=TAGCCTAGGTAATGCGGGCCAGTATAGTGTCGGC qualitative_label=NO
biosequence=TCTGCTAGGTCAGTTGGTCAGCTATCGAGCTGCC qualitative_label=NO
biosequence=TCTCGGAGGACACGAAAGGTCCGAGCTCGACATC qualitative_label=NO
biosequence=AGAACGAGGGCACGCTGAGTTGATAGCAGAGTAG qualitative_label=NO
biosequence=TCTTGTAGATCAAAGGTTAAGAACGCCGAAGCCT qualitative_label=YES
biosequence=TCACGGAGGACACGAAGGTCAGAGCTTTCCAGAG qualitative_label=YES
biosequence=ACTAGCAGGCCAAGGGTCACTCAGGATTAGTCCG qualitative_label=YES
biosequence=TCTAGTTGGTCACGGACGTCACACACGACGGGTA qualitative_label=NO
biosequence=GCGACTGTGGCATCAGCAGGTTACCATAACTTAA qualitative_label=NO
biosequence=CGAACTAGGTCATGCAGGACAGTGAATACATTGA qualitative_label=YES
biosequence=CCTTACGGGTCAAGGTTATAGCACGGGTGGTACG qualitative_label=YES
biosequence=TCTCGGAGCACACGAAGGTCAGAGCTTTCCAGAG qualitative_label=NO
biosequence=AGAACGAGGGCACGCTGATTTGATAGCAGAGTAG qualitative_label=NO
biosequence=GCTGCTAGGTCCGGTTGGTCAGCTAACGGGTACG qualitative_label=NO
biosequence=CCTAGCAGTCCAATCTGGGTCACTCAAGGCTTGA qualitative_label=NO
biosequence=ACTAGTTGGTCATCTGAGGTCACACACAATTCGG qualitative_label=YES
biosequence=CGTCCACGGTCAGAGAGGTCAGTGAATGCCGAGT qualitative_label=YES
biosequence=TCGAGTAGGTTACCAATAGGGCATTCAGCTTTCT qualitative_label=NO
biosequence=AGGATGAGGTTAAGATCAGGGAAACAGAATACAT qualitative_label=YES
biosequence=AGAACGAGGGCACGCTGAGTCGATAGCAGAGTAG qualitative_label=NO
biosequence=CGTCCAAGGACAGCAGGTCAGTGAAAGCGACGTG qualitative_label=NO
biosequence=TGTCAAAGTTCAAAGGTAACGTACGTATCCACAC qualitative_label=YES
biosequence=TCATATAGGTAAACAGGGGAAAGTCCGTAAGTTA qualitative_label=YES
biosequence=TCCTGTAGATCAAAGGTTAAGAAAGCCGAAGCCT qualitative_label=NO
biosequence=CCAGACAGGTGAATGGTAACTCAGTCTGGTACGC qualitative_label=NO
biosequence=CGAACGAGGGCATGAGTTGAGAGCAAATGCCGAT qualitative_label=NO
biosequence=GCTAGTTGGCCAGTAAAAGGTCACACACCGGTCG qualitative_label=YES
biosequence=GGAACGAGGGGAAGTTGATAGCAGAGTTTGATGG qualitative_label=NO
biosequence=CAAACTAGGTGACCGGAAGGTCAAAGTCCGCATG qualitative_label=YES
biosequence=CGAACGAGGGCAAGAGTTGATAGCAAATGCCGAT qualitative_label=NO
biosequence=AGAACGAGGGCACGCTAAGTTGATAGCAGAGTAG qualitative_label=NO
biosequence=CCACCAAGGTGAACAAGGTCGTTGATTACTATTC qualitative_label=YES
biosequence=TAGCGTAGGTCAGATCGGGCCAGTATACGCTATA qualitative_label=NO
biosequence=TCTATTAGTTCAAGGGCAACCGACGAGTCCGTTT qualitative_label=YES
biosequence=TTACCTAGGTGAAGGTCGTTGATCCCTCTGTAGA qualitative_label=NO
biosequence=TCAGCTAGGTCAACGATGGTCAGCTAATCTGCTA qualitative_label=NO
biosequence=AGAAAGAGGTTATTAAGATCAGGGAATTGCGGTC qualitative_label=YES

====

# System: LXRb homodimer (NR concentration 270 nM)
# method notes: PBM binding z-score (relative to random genomic background probes); higher = stronger binding; sequences stand for … in GC…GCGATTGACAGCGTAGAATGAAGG
Measured PBM binding z-score by item
assay endpoint: PBM binding z-score

biosequence=TCGAGTAGGTTAGTTGGGGCATTCAGCCAACATA assay_endpoint="PBM binding z-score" observed_result=-0.31
biosequence=TAATATAGGTAAAAGGTGAAAGTCGGTGTGGTAA assay_endpoint="PBM binding z-score" observed_result=0.134
biosequence=AATACAGGGTCATCGTAGGCCAGGGTACGCACAG assay_endpoint="PBM binding z-score" observed_result=1.33
biosequence=TCGGGTAGGTTACCAATGGGGCATTCAGCTTTCT assay_endpoint="PBM binding z-score" observed_result=0.113
biosequence=ACTATTAGTTGAGCCGAGGGCAACCGATAGGTTG assay_endpoint="PBM binding z-score" observed_result=0.161
biosequence=TAGCCTAGGTCATGGACCAGTATACCACGCGAAC assay_endpoint="PBM binding z-score" observed_result=-0.208

====

# Tested on: RARb:RXRa (NR concentration 270 nM, RXRa partner concentration 90 nM)
# method notes: PBM binding z-score (relative to random genomic background probes); higher = stronger binding; sequences stand for … in GC…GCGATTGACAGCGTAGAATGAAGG
assay endpoint: PBM binding z-score

biosequence=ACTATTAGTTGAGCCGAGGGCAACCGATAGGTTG observed_result=1.21
biosequence=CCAGTCAGGTGAAAGGTAACTCAGTCTGGTACGC observed_result=1.55
biosequence=ACAGACAGGTGAGTGAAGGTAACTCACCTGGACG observed_result=0.553
biosequence=CGTCCAAGGTCAAGGTCAGAGAAAGAGACTCGAA observed_result=5.62
biosequence=TGAATGAGGTTATAAGATCATGGAACGTTGCAAA observed_result=1.13
biosequence=TATACAGGGTCACAGGCCAGAGTACGAATGTCGA observed_result=4.8
biosequence=CCTAGTTGGTCAATGTCACACACGCTATAGGTAC observed_result=1.4
biosequence=TCATATAAGTAATACAGGTGAAAGTCGGCATCTA observed_result=0.567
biosequence=TTACCGAGGTGAAGGTCGTTGATCCCTCTGTAGA observed_result=2.11
biosequence=CAAACTAGGTCAAGGTCAAAGACGGTTTGTGCCA observed_result=5.16
biosequence=CCGACTGGGGCTAAGGTTACCATACTCAGTACGA observed_result=1.12
biosequence=CAAACTAGGGCAAAGGTCAAAGTCGAGCCAACCA observed_result=5.15
biosequence=CCTTACGGGTCACTCCAGGTTATAGTATCGGAGT observed_result=3.8
biosequence=TTACCAAGGTGAGCTGGGGTCGTTGATCCAACTC observed_result=1.55
biosequence=ACAGACAGGTGATGTAGGTAACTCAGGCTATCAT observed_result=0.149
biosequence=GCTTACGGGTTAAAGGTTATAGCATGAATAGAAT observed_result=2.31
biosequence=GCCACTGGGGCAAAGCAGGTTACCATAAGGTTGG observed_result=1.01
biosequence=CCTACTGGGCCATCAGGCCATTGATATCAACGTT observed_result=0.28
biosequence=CCAGACAGGTGGGAAGGTAACTCAGCCTCGATTA observed_result=-0.0117
biosequence=CCTTACGGGTCACCCCAGGTTATAGCATCGGAGT observed_result=3.79
biosequence=AGAACGAGGGCAATGAGTTGAGAGCACGGGTGGC observed_result=2.05
biosequence=TAGCCTAGGTCAGATCGTGCCAGTATACGCTATA observed_result=3.18
biosequence=CCTCGGAGGACAAAAGGAGGTCAGAGCTGCCAGA observed_result=2.39
biosequence=CTCGAAAGGTCGTGCTCAGGTGACTATACCAAAC observed_result=4
biosequence=TCATATAGGTAAAGGCTAGGTGAAAGTCCGATCT observed_result=0.844
biosequence=AGAATGAGTTTACCAAAGATCAGGGAAACGCTTG observed_result=0.347
biosequence=TCGAGTAGGGTACCAATGGGGCATTCAGCTTTCT observed_result=0.103
biosequence=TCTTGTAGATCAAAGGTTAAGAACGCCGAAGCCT observed_result=1.86
biosequence=ACTATTAATTGAGACGAGGGCAACCGATAGGTTG observed_result=1.01
biosequence=CCTTACGGGACAAGGTTATAGCACGGGTGGTACG observed_result=0.996
biosequence=GATACAGGGTCAGCTAGAGGCCACAGTATGGAAA observed_result=4.2
biosequence=ATCTCTAGGTAATGATAGTTCAGTGAATGCAAAT observed_result=0.694
biosequence=CCTAGCAGGTCAGGGTCACTCAAGCATTTCGCTT observed_result=4.2
biosequence=CAAACTAGGTCACGAACGGTCAAAGTCGAATGAC observed_result=4.7
biosequence=AGTCAAAGTTCAGGACGAGTTAACGTAAAGCACG observed_result=4.21
biosequence=ACTTACGGGTCCACGAGGTTATAGCACGCGTATA observed_result=1.15
biosequence=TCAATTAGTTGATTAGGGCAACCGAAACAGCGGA observed_result=0.665
biosequence=ATACCAAAGTGATCGTGAGGTCGTTGATACTAAC observed_result=0.514
biosequence=TCTCGGAGGACACGAAAGGTCAGAGCTCGACATC observed_result=4.14
biosequence=CATACAGGGTCAGCTAGGCCAGAGTTGGGACGGC observed_result=4.17
biosequence=CGGCCAAGGTCAAGGTCAGTGAAAGAGACTCGAA observed_result=5.71
biosequence=ACTAGGAGGCCAAGTTTGGGTCACTCAAACAAAG observed_result=2.43
biosequence=CGACCAAGGTCAGCAGGTCAGTGAAAGCGACGTG observed_result=5.02
biosequence=CAGACTGGGGCATAAGGTTACCATAAGCCAGCCC observed_result=1.66
biosequence=TCTGCTAGGTCAGTTGGTAAGCTAACGAGCTGCC observed_result=3.29
biosequence=GCATGTAGGTAATACAAGGTGAAAGTCCGATTGT observed_result=0.218
biosequence=TGGATGAGGTTAAAGATCAGGGAACGTGGCGTCG observed_result=2.37
biosequence=TCATATAGGTAAATGCTACGTGAAAGTCCGATCT observed_result=0.222
biosequence=TAGCCTATGTCAGATCGGGCCAGTATACGCTATA observed_result=0.0129
biosequence=CTTTACGGGTCACTGACAGGTTATAGCATTTGGA observed_result=4.14
biosequence=CCGACCGGGGCAAGGTTACCATAACGCACAGCCA observed_result=1.97
